In this section we review reported IC50 values for a set of molecules.
System: BxPC-3 cells
assay: cell viability (MTS)
Format: cell-based, human
measurement_setup: Homo sapiens, BXPC-3, 72 h
measured_quantity: IC50 (µM)

1) O=c1[nH]c2ccccc2n1C1CCN(CCCC(c2ccc(F)cc2)c2ccc(F)cc2)CC1 [Pimozide, pimozide] : 17.8
2) Nc1ccn([C@@H]2O[C@H](CO)[C@@H](O)C2(F)F)c(=O)n1 : 0.296

* * *

Tested on: PANC-1 cells
assay: cell viability (MTS)
Format: cell-based, human
measurement_setup: Homo sapiens, PANC-1, 24 h
pIC50: −log10 of the molar value.
measured_quantity: pIC50

1. NCCc1ccc(O)c(O)c1 : < 4.22
2. Nc1ccn([C@@H]2O[C@H](CO)[C@@H](O)C2(F)F)c(=O)n1 : < 4.22
3. O=c1[nH]c2ccccc2n1C1CCN(CCCC(c2ccc(F)cc2)c2ccc(F)cc2)CC1 [Pimozide, pimozide] : 4.82
